MEASUREMENT_TARGET: UniProt Q7ZAK5
Sequence (Q7ZAK5 whole entry, looked up): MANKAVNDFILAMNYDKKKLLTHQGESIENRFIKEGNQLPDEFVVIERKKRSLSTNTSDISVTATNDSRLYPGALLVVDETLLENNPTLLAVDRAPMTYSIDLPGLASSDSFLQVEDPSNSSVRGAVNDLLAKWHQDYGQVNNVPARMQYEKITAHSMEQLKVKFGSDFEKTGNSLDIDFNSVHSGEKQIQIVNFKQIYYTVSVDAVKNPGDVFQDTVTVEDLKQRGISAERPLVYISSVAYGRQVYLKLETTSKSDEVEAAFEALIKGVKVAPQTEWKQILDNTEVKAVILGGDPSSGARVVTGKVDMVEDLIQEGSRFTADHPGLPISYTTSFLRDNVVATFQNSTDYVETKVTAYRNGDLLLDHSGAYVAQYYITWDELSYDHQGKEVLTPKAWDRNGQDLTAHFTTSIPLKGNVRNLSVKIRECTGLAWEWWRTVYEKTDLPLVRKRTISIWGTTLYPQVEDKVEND
EXPERIMENT_NOTES: cell-based
MEASUREMENT_KIND: IC50 (µM)
Write the value in µM as a bare number.

Endpoint output: IC50 of COc1ccc(C=C2C(=O)NC(=O)NC2=O)cc1COc1ccc(F)cc1F [PB-1] . Value?
38

* * *

MEASUREMENT_TARGET: Perfringolysin O (PFO) (Clostridium perfringens, UniProt P0C2E9)
Sequence (P0C2E9 29-500 limits assumed): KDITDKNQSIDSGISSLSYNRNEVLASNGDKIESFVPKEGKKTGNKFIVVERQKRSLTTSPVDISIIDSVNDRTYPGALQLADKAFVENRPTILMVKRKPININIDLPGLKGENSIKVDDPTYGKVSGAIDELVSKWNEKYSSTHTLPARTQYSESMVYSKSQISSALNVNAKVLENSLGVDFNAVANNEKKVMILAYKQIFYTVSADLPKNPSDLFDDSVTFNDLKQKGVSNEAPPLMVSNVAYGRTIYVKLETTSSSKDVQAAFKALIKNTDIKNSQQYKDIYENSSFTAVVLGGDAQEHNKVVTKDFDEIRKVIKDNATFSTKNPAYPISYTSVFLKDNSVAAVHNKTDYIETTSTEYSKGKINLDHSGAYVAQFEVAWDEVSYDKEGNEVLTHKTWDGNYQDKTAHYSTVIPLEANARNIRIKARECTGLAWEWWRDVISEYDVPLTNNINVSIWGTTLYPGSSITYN
MEASUREMENT_KIND: pIC50
Formally, pIC50 is defined as -log10 of the concentration c, with c in mol/L.

Endpoint output: pIC50 of COc1ccc(C=C2C(=O)NC(=O)NC2=O)cc1COc1ccc(F)cc1F . Value?
5.34
